# System: MDA-N
# method: NCI tumour cell line growth inhibition, 48 h
Active and inactive are the calls of the source. Rule as the data show it: active = GI50 up to about 1.1 µM and inactive = higher. Residues, ends and D or L forms follow the SMILES beside them. *: point of attachment. Pentanoyl = CCCCC(=O)*; Boc = CC(C)(C)OC(=O)*
Just give me one of these, please: active, inactive

query: Each molecule tested received a call. Report the one for Cc1ccc(C(=O)N(C2CCCCC2)C2CCCCC2)cc1/N=N/N(C)C .
result: inactive

query: Each molecule tested received a call. Report the one for N#Cc1c(-c2ccco2)c2c(n(C3OC(CO)C(O)C(O)C3O)c1=S)CCCC2 (stereo unspecified) .
result: inactive

query: Each molecule tested received a call. Report the one for COC(=O)[C@@H]1C2OC(C)(C)OC2CN1C(=O)OCc1ccccc1 (stereo partly specified) .
result: inactive

query: Each molecule tested received a call. Report the one for S=C1NC(c2ccccc2)NC(c2ccccc2)S1 (stereo unspecified) .
result: inactive

query: Each molecule tested received a call. Report the one for OCC1OC(c2cccc3cc(O)c(O)cc23)CC1O (stereo unspecified) .
result: inactive

query: Each molecule tested received a call. Report the one for CCCCC(=O)Oc1ccc(CC(NC(=O)OC(C)(C)C)C(=O)NC(C)C(=O)NC(Cc2ccccc2)C(=O)NCC(N)=O)cc1 (stereo unspecified) (Boc-Y(Pentanoyl)AFG-NH2; configuration not given here) .
result: inactive

query: Each molecule tested received a call. Report the one for COC(=O)C(CNC(=O)/C=C/c1ccc(OC)c(OC)c1)NC(=O)/C=C/c1ccc(OC)c(OC)c1 (stereo unspecified) .
result: inactive

query: Each molecule tested received a call. Report the one for COc1ccc(/C=C2\CCC(C)C3C2=NN(c2ccccc2)C3c2ccc(OC)c(OC)c2)cc1OC (stereo unspecified) .
result: inactive

query: Each molecule tested received a call. Report the one for Oc1ccc(Cl)cc1CN1CCN(Cc2cc(Cl)ccc2O)C1 .
result: inactive

query: Each molecule tested received a call. Report the one for CC1=C(C)C(=O)O[C@@H]([C@](C)(O)[C@]2(O)CC[C@@]3(O)[C@@H]4C[C@H](O)[C@]5(O)[C@@H](O)C=CC(=O)[C@]5(C)[C@H]4CC[C@]23C)C1 .
result: inactive

query: Each molecule tested received a call. Report the one for COC(=O)CCCc1nc2ccccc2nc1/N=N/c1ccccc1 .
result: inactive

query: Each molecule tested received a call. Report the one for N=c1[nH]cnc2c1nnn2C1C=CC(COS(N)(=O)=O)C1 (stereo unspecified) .
result: inactive

query: Each molecule tested received a call. Report the one for CCN(CC)CCC(=O)c1ccc(C)cc1 .
result: inactive

query: Each molecule tested received a call. Report the one for COc1ccc(C[C@@H]2OC3(C=CC(=O)C=C3)O[C@H]2Cc2ccc(OC)cc2)cc1 .
result: active

query: Each molecule tested received a call. Report the one for CSc1cc(Br)ccc1-n1c(C(=O)c2ccccc2)c(SC)n(-c2ccccc2)c1=O .
result: inactive

query: Each molecule tested received a call. Report the one for COc1cccc(CC2C(=O)N/C(=N\C(C)=O)N2C)c1OC(C)=O (stereo unspecified) .
result: inactive

query: Each molecule tested received a call. Report the one for COc1cc(C2S/C(=C/c3ccccc3)C(=O)N2c2cc(Cl)ccc2Cl)cc(OC)c1OC (stereo unspecified) .
result: inactive

query: Each molecule tested received a call. Report the one for CC(C)(C)OCC1NC(=O)[C@@H]2Cc3c([nH]c4ccccc34)C(c3ccccc3)N2C1=O (stereo partly specified) .
result: inactive

query: Each molecule tested received a call. Report the one for Cc1cccc2c1C(=O)/C(=C/c1ccccc1C(=O)O)C2 .
result: inactive

query: Each molecule tested received a call. Report the one for CC1(C)COC(c2ccccc2-c2ccccc2)=N1 .
result: inactive

FYI, the data here is from ChEMBL document CHEMBL1201862.
